tested_target: 5-HT2C (Homo sapiens)
Construct: host or cells: HEK293
Sequence (P28335 33-458): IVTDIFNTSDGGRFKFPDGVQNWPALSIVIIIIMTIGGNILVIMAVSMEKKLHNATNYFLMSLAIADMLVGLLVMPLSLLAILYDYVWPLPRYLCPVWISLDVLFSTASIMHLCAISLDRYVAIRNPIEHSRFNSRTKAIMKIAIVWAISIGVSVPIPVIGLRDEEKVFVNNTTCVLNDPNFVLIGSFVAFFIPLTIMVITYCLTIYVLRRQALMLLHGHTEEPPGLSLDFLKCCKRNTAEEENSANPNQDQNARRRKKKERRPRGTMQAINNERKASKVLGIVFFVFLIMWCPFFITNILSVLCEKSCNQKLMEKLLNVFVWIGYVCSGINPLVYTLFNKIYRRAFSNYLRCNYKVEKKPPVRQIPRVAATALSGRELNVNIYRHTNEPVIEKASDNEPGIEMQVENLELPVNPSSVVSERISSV
protocol_notes: FLIPR Ca2+ flux functional assay, 5-HT2C receptor (stably transfected HEK293)
Type: cell-based
test_settings: agonist activity, Ca2+ flux, HEK293
Classify: Y when Emax is strictly less than 80%; N when Emax is not.

Worked examples follow.
[
  {
    "structure_smiles": "CN(C)CCc1cccc2cccc(O)c12",
    "label": "N"
  },
  {
    "structure_smiles": "CCCN(CCC)CCc1cccc2cccc(OC)c12",
    "label": "N"
  },
  {
    "structure_smiles": "COc1cccc2cccc(CCN(C)C)c12",
    "label": "Y"
  },
  {
    "structure_smiles": "CCN(C)CCc1cccc2cccc(OC)c12",
    "label": "N"
  },
  {
    "structure_smiles": "CN(C)CCc1cccc2ccc(F)cc12",
    "label": "N"
  },
  {
    "structure_smiles": "COc1ccc2cccc(CCN(C)C)c2n1",
    "label": "N"
  },
  {
    "structure_smiles": "CCN(C)CCc1cccc2ccc(OC)cc12",
    "label": "N"
  },
  {
    "structure_smiles": "CCCN(C)CCc1cccc2ccc(OC)cc12",
    "label": "N"
  },
  {
    "structure_smiles": "COc1cccc(CNCCc2cccc3ccc(OC)cc23)c1",
    "label": "N"
  },
  {
    "structure_smiles": "COc1cccc2cccc(CCN(C(C)C)C(C)C)c12",
    "label": "N"
  }
]

Exercise: Dear reviewer, please state whether CC(C)N(C)CCc1cccc2ccc(F)cc12 has Emax strictly beneath 80%.
Solution: N

Exercise: Dear reviewer, please state whether CCCN(C)CCc1cccc2cccc(OC)c12 has Emax strictly beneath 80%.
Solution: Y

* * *

protocol_notes: In vivo pharmacokinetics: plasma and brain exposure after IP administration
Set-up: species or system male C57BL/6 mice
test_settings: male, C57BL/6, mouse, brain, ip, 10 mg/kg, 4 h, n = 3, read-out: Brain Parenchyma Concentration (μM) Mean ± SD
Entries and their measured concentration at 4 h follow.
Reply with just the number (in µM).

[
  {
    "molecule": "COc1ccc2cccc(CCN(C)C3CC3)c2c1 [Example I-15]",
    "readout_unit": "µM",
    "concentration at 4 h": 0.905
  }
]

With those in mind, consider the next molecule.
Exercise: Bench note: what concentration at 4 h did COc1ccc2cccc(CCN(C)C(C)C)c2c1 [Example I-7] show?
Solution: 0.0825

* * *

tested_target: 5-HT2B (Homo sapiens, UniProt P41595)
Construct: host or cells: CHO-K1
Sequence (P41595 whole entry): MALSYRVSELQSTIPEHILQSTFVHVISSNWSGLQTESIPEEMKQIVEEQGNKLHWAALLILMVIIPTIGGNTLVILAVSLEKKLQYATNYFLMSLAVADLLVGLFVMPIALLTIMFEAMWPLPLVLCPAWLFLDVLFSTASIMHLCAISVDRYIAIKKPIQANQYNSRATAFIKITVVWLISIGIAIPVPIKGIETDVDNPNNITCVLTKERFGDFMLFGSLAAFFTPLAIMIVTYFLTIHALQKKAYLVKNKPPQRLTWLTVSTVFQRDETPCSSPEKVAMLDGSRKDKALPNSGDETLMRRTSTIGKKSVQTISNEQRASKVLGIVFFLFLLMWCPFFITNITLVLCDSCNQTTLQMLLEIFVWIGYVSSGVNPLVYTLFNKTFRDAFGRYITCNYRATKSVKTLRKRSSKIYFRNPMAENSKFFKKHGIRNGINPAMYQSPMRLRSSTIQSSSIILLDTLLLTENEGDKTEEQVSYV
protocol_notes: FLIPR Ca2+ flux functional assay, 5-HT2B receptor (stably transfected CHO-K1)
Type: cell-based
test_settings: agonist activity, Ca2+ flux, CHO-K1
# if value of Emax reaches 20%, tag y; if it stays below, tag n

Worked examples follow.
[
  {
    "structure_smiles": "COc1ccc2cccc(CCN(C)C)c2c1",
    "tested_target": "5-HT2B (Homo sapiens, UniProt P41595)",
    "label": "n"
  },
  {
    "structure_smiles": "COc1cccc2cccc(CCN(C)C)c12",
    "tested_target": "5-HT2B (Homo sapiens, UniProt P41595)",
    "label": "n"
  },
  {
    "structure_smiles": "CCCN(CCC)CCc1cccc2ccc(OC)cc12",
    "tested_target": "5-HT2B (Homo sapiens, UniProt P41595)",
    "label": "y"
  },
  {
    "structure_smiles": "CCCN(C)CCc1cccc2ccc(OC)cc12",
    "tested_target": "5-HT2B (Homo sapiens, UniProt P41595)",
    "label": "y"
  }
]

Exercise: Quick check, Emax >= 20%? CCN(C)CCc1cccc2cccc(OC)c12
Solution: y

Exercise: Quick check, Emax >= 20%? COc1cccc2cccc(CCN(C(C)C)C(C)C)c12
Solution: y

* * *

Entries and their measured Kp at 4 h follow.
protocol_notes: In vivo pharmacokinetics: plasma and brain exposure after IP administration
Set-up: species or system male C57BL/6 mice
test_settings: male, C57BL/6, mouse, brain/plasma, ip, 10 mg/kg, 4 h, n = 3, read-out: B:P Ratio Mean ± SD

[
  {
    "structure_smiles": "COc1ccc2cccc(CCN(C)C(C)C)c2c1",
    "property": "Kp at 4 h",
    "result": 14
  }
]

With those in mind, consider the next molecule.
Exercise: Bench note: what Kp at 4 h did COc1ccc2cccc(CCN(C)C3CC3)c2c1 show?
Solution: 8.2

* * *

tested_target: 5-HT2A (Homo sapiens, UniProt P28223)
Construct: host or cells: HEK293
Sequence (P28223 whole entry): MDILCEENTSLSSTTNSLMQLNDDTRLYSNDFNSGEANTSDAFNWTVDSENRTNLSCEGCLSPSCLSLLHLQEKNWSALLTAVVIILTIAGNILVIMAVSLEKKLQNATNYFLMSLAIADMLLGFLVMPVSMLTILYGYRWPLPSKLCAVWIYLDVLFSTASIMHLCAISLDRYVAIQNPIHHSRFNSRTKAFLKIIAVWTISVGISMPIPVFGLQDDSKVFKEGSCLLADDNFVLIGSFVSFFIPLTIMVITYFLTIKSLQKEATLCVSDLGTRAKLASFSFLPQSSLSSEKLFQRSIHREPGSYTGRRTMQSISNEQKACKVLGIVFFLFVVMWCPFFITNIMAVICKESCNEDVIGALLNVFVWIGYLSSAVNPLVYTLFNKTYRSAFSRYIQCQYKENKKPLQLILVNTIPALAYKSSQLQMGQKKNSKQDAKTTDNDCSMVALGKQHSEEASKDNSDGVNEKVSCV
protocol_notes: FLIPR Ca2+ flux functional assay, 5-HT2A receptor (stably transfected HEK293)
Type: cell-based
Classify: 1 when EC50 is strictly less than 200 nM; -1 when EC50 is not.

Worked examples follow.
[
  {
    "structure_smiles": "CN(C)CCc1cccc2ccc(F)cc12",
    "tested_target": "5-HT2A (Homo sapiens, UniProt P28223)",
    "label": -1
  },
  {
    "structure_smiles": "CCCN(C)CCc1cccc2cccc(OC)c12",
    "tested_target": "5-HT2A (Homo sapiens, UniProt P28223)",
    "label": -1
  }
]

Exercise: Dear reviewer, please state whether CC(C)N(C)CCc1cccc2ccc(F)cc12 has EC50 strictly beneath 200 nM.
Solution: -1

Exercise: Dear reviewer, please state whether CN(C)CCc1cccc2ccc(Cl)cc12 has EC50 strictly beneath 200 nM.
Solution: -1

Exercise: Dear reviewer, please state whether COc1cccc2cccc(CCN(C)C)c12 has EC50 strictly beneath 200 nM.
Solution: 1

Exercise: Dear reviewer, please state whether COc1cccc2c(CCN)cccc12 has EC50 strictly beneath 200 nM.
Solution: -1

Exercise: Dear reviewer, please state whether COc1cccc2cccc(CCN(C)C(C)C)c12 has EC50 strictly beneath 200 nM.
Solution: 1

* * *

protocol_notes: In vivo pharmacokinetics: plasma and brain exposure after IP administration
Parameters: species or system male C57BL/6 mice
test_settings: male, C57BL/6, mouse, plasma, ip, 10 mg/kg, 4 h, individual mice, read-out: Plasma Concentration (μM) Individual
property: concentration at 4 h (µM)
Reply with just the number (in µM).

Exercise: Bench note: what concentration at 4 h did COc1ccc2cccc(CCN(C)C(C)C)c2c1 show?
Solution: 0.0723

* * *

protocol_notes: In vivo pharmacokinetics: plasma and brain exposure after IP administration
Design: species or system male C57BL/6 mice
test_settings: male, C57BL/6, mouse, brain, ip, 10 mg/kg, 0.5 h, individual mice, read-out: Brain Parenchyma Concentration (μM) Individual
property: concentration at 0.5 h

Exercise: Bench note: what concentration at 0.5 h did COc1ccc2cccc(CCN(C)C3CC3)c2c1 show?
Solution: 4.3 µM

* * *

tested_target: 5-HT2A (Homo sapiens)
Construct: host or cells: HEK293
protocol_notes: FLIPR Ca2+ flux functional assay, 5-HT2A receptor (stably transfected HEK293)
Format: cell-based
test_settings: agonist activity, Ca2+ flux, HEK293; read-out: 5-HT2A EC50
Classification by EC50 follows these ranges: lower segment (below 90 nM), middle segment (90 nM to below 400 nM), upper segment (400 nM or more)

[
  {
    "structure_smiles": "COc1cnc2cccc(CCN(C)C)c2c1",
    "tested_target": "5-HT2A (Homo sapiens)",
    "label": "upper segment"
  }
]

Exercise: Record CCCN(CCC)CCc1cccc2cccc(OC)c12 — which class?
Solution: middle segment

Exercise: Record CCN(C)CCc1cccc2ccc(OC)cc12 — which class?
Solution: lower segment

Exercise: Record COc1ccc2cccc(CCN(C)C3CC3)c2c1 — which class?
Solution: middle segment

* * *

protocol_notes: In vivo pharmacokinetics: plasma and brain exposure after IP administration
Design: species or system male C57BL/6 mice
test_settings: male, C57BL/6, mouse, plasma, ip, 10 mg/kg, 0.083 h, individual mice, read-out: Plasma Concentration (μM) Individual
Entries and their measured concentration at 0.083 h follow.
Hi, when you answer, please include the unit after the number. Thanks!

[
  {
    "structure_smiles": "COc1ccc2cccc(CCN(C)C(C)C)c2c1",
    "result": "0.695 µM"
  }
]

With those in mind, consider the next molecule.
Exercise: Bench note: what concentration at 0.083 h did COc1ccc2cccc(CCN(C)C3CC3)c2c1 show?
Solution: 2.3 µM

* * *

protocol_notes: In vivo pharmacokinetics: plasma and brain exposure after IP administration
Set-up: species or system male C57BL/6 mice
test_settings: male, C57BL/6, mouse; IP 10 mg/kg, plasma; read-out: Apparent t1/2 (converted)
property: half-life (min)
Reply with just the number (in min).

[
  {
    "structure_smiles": "COc1ccc2cccc(CCN(C)C3CC3)c2c1",
    "half-life [min]": 72
  }
]

Exercise: Bench note: what half-life did COc1ccc2cccc(CCN(C)C(C)C)c2c1 show?
Solution: 46.2
